Below, each entry is listed alongside its reported %Inh.
system: CAMKK1; conditions: concentration: 1 μM, replicates: in singlicate; n = 1;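 further: KINOMEscan kinase panel screen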
Give a bare numeral; the unit % is implied.

These recorded examples may help you get a feel for the data.
molecule	%Inh [%]
Cc1ccc(O)cc1Nc1cc(C(F)(F)F)nc2ccc(-c3ccncc3)cc12 [GW630823]	11
COc1ccc(NC(=O)Nc2ccc(C)c(-c3ccc(C(=O)Nc4ccncc4)cc3)c2)cc1 [GSK1398475]	3
O=C(Nc1n[nH]c2nc(-c3ccco3)c(Br)cc12)c1ccc(CN2CCCC2)cc1.O=C(O)[C@H](O)[C@@H](O)C(=O)O [SB-742352]	0

Now take the following molecule into account.
IN: Param item = Cc1cccc(-c2nc(Nc3ccc4[nH]nnc4c3)c3ccccc3n2)n1 [GW867587] ; retrieve measured %Inh.
OUT: 0
